B1: library; numbered along this chain (parent)
chain: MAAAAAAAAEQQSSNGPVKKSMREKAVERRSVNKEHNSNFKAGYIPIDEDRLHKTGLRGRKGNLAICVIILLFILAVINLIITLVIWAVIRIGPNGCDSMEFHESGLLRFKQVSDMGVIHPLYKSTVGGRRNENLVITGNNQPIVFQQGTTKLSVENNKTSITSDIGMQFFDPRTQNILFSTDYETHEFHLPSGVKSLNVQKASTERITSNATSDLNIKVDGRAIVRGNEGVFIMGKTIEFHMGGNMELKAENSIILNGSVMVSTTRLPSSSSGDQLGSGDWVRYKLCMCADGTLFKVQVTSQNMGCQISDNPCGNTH

variants of: B1; experiment: SGCB cell-surface expression functional score (HA stain, bin4 vs bin1, normalised to synonymous) (log10 ratio); higher = more cell-surface SGCB (functional)
Measured SGCB cell-surface expression functional score (log10) of individual entries
Format: numeric value only, no unit, no commentary.

Note down SGCB cell-surface expression functional score (log10) recorded for "A76M"
-0.23

Note down SGCB cell-surface expression functional score (log10) recorded for "D165S"
-0.01

Note down SGCB cell-surface expression functional score (log10) recorded for "N33T"
-0.07

Note down SGCB cell-surface expression functional score (log10) recorded for "E10L"
0.02

Note down SGCB cell-surface expression functional score (log10) recorded for "S13D"
0.05

Note down SGCB cell-surface expression functional score (log10) recorded for "F171C"
-1.66

Note down SGCB cell-surface expression functional score (log10) recorded for "A26P"
0.09

Note down SGCB cell-surface expression functional score (log10) recorded for "R174A"
0.02
